Biological target: T1, human RXFP3 (human, UniProt Q9NSD7 1-469)
T1 construct: whole, on cells; also called GPCR135; RXFP3 receptor
T1 sequence (looked up): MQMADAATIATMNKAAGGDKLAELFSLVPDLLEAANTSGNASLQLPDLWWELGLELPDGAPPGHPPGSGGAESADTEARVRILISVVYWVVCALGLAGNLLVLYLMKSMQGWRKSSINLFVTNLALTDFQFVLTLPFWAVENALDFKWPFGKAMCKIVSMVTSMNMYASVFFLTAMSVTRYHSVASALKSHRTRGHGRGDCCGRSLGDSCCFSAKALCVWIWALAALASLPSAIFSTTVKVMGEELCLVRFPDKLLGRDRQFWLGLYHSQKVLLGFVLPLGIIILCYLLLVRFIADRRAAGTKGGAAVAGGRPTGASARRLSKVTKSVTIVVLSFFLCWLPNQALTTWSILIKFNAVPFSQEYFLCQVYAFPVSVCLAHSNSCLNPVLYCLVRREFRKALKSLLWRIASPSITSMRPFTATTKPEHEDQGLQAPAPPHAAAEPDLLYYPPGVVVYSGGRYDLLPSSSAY
Experiment: competition binding vs Eu-DTPA-R3/I5 on HEK-293T cells stably expressing human RXFP3, time-resolved fluorescence, n = 3
Where no end group is shown, it is not given here.
QUANTITY_KIND: pIC50

RAAPYGVRLAGREFIRAVIFTAR-NH2 (Synthetic single chain peptide) [H3 B1-22R C10/22A]
6.83
PYGVRLSGREFIRAVIFTSR-NH2 (Synthetic single chain peptide) [H3 B4-22R]
6.66
RAAPYGVRLSGREFIRAVIFTSR-OH (Synthetic single chain peptide) [H3 B1-22R Acid]
6.46
GVRLSGREFIRAVIFTSR-NH2 (Synthetic single chain peptide) [H3 B6-22R]
6.33
